Sourced from ChEMBL document CHEMBL5523682

# tgt: fMet-Leu-Phe receptor (Homo sapiens, UniProt P21462)
# Sequence (P21462 whole entry): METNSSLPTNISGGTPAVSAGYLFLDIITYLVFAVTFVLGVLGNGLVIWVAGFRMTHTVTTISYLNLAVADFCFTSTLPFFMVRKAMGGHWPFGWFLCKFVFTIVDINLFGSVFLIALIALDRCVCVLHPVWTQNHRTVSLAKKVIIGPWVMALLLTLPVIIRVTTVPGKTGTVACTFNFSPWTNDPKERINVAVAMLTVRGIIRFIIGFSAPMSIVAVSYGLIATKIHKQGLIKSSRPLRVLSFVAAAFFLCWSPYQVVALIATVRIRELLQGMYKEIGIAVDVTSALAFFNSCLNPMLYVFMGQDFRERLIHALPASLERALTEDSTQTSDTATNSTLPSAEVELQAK
# assay.procedure: Agonist activity at FPR1 (unknown origin) transfected in CHO cells by cAMP assay
# Assay type: functional, cell-based
observed.property: EC50 (nM)

I = O=C(Nc1ccc(Br)cc1)[C@@H]1C2CCC([C@@H]1C(=O)O)C21CC1 (some centres not stated)
II = COc1cc(F)c([C@@H]2CNC(=O)[C@H]2Nc2cc(-c3ccc(Cl)cc3)no2)c(F)c1
Input line: Which of these two has the smaller recorded EC50: I or II ? Write down the label attached to your selection.
Output line: II

----------
# tgt: fMet-Leu-Phe receptor (Homo sapiens)
# assay.procedure: Agonist activity against human FPR1 expressed in HL-60 cells by Fluo4-AM dye based intracellular calcium flux assay
# Type: functional, cell-based
observed.property: EC50

Summary for this molecule, "COc1cccc(Cc2cc(C)nn(CC(=S)Nc3ccccc3)c2=O)c1" : EC50 is > 50 µM

----------
# assay.procedure: Intrinsic clearance in rat liver microsomes
# Type: ADME, Microsome
observed.property: CLH (µL/min/mg)
Supply the numeric figure in µL/min/mg, leaving out any unit text.

Summary for this compound, "N#Cc1ccc(C[C@H](NC(=O)Nc2ccc(F)cc2)C(=O)NCC2(c3ccc(F)c(Cl)c3)CC2)cc1" : CLH is 15

----------
# tgt: N-formyl peptide receptor 2 (Homo sapiens, UniProt P25090)
# Sequence (P25090 whole entry): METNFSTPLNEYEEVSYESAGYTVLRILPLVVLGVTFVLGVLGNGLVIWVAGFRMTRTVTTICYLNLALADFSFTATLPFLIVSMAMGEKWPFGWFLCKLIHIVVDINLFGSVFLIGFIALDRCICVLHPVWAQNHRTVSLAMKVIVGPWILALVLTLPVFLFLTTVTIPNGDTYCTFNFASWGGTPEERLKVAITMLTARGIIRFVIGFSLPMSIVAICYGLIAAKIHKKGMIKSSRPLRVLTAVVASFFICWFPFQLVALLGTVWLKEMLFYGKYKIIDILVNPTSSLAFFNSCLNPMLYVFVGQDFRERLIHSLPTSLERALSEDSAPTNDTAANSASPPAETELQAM
# assay.procedure: Agonist activity at human FPR2 expressed in CHO cells assessed as increase in calcium mobilization by Fluo-4 AM dye based fluorescence assay
# Format: functional, cell-based
observed.property: EC50 (nM)

1 = CCC1(C(C)C)NC(=O)N(CC(=O)Nc2ccc(Br)cc2)C1=O (configuration not stated)
2 = CC[C@H](C)[C@H](NC(=O)Nc1ccc(Br)cc1F)C(=O)O
Input line: Form field 'greater EC50' accepts 1 or 2 ; which applies? Write down the label attached to your selection.
Output line: 2
